tested on: six human cancer cell lines (SW480, SW620, PC3, HepG2, MDA, A549) and HaCaT; assay: SRB cytotoxicity assay, whole panel; format: cell-based; conditions: Homo sapiens, depending on the compound and cell line, read-out: IC50 over the cell line panel
ASSAY METRIC: IC50

COc1ccc(/C(=C\c2cc(OC)c(OC)c(OC)c2)C(=O)OCCCCBr)cc1Br [Compound 8]: 18.8 to 32.7 µM

Let's switch to this compound now.
Find IC50 for CCCCN(CCCC)C(=O)/C(=C/c1cc(OC)c(OC)c(OC)c1)c1ccc(OC)c(Br)c1 [Compound 20] on six human cancer cell lines (SW480, SW620, PC3, HepG2, MDA, A549) and HaCaT and write it down.
18.8 to 32.7 µM

---

experiment: SRB cytotoxicity assay, HaCaT; format: cell-based; conditions: human, 48 h culture, non-tumor cell line, mean ± SD, at least three independent experiments, compounds marked * : low solubility, real values might be lower
ASSAY METRIC: IC50 at 48 h (nM)
Reply with just the number (in nM).

COc1ccc(/C=C\c2cc(OC)c(OC)c(OC)c2)cc1O: 4.27
COc1cc2c(c(OC)c1OC)-c1ccc(OC)c(=O)cc1[C@@H](NC(C)=O)CC2 [colchicine, reference compound]: 104

Quickly give me recorded IC50 at 48 h for COc1cc([C@@H]2c3cc4c(cc3[C@H](O)[C@H]3COC(=O)[C@H]23)OCO4)cc(OC)c1OC [podophyllotoxin, reference compound]
31.6

---

Known pIC50 of a selection of molecules
tested on: PC3 (prostate cancer) cells; assay: SRB cytotoxicity assay, PC3; format: cell-based; settings: Homo sapiens; SRB assay, 48 h culture, mean ± SD, at least three independent experiments; compounds marked * : low solubility, real values might be lower; read-out: Cytotoxicity IC50, PC3
Recall that pIC50 is obtained by taking minus log10 of the concentration measured in molar.

CCCCNC(=O)/C(=C/c1cc(OC)c(OC)c(OC)c1)c1ccc(OC)c(Br)c1: 4.17
COc1ccc(/C(=C\c2cc(OC)c(OC)c(OC)c2)C(=O)OCCCCBr)cc1Br: 4.51

Quickly give me recorded pIC50 for COc1ccc(/C(=C\c2cc(OC)c(OC)c(OC)c2)C(=O)NCc2ccccc2)cc1Br
4.25

Quickly give me recorded pIC50 for COC(=O)/C(=C/c1cc(OC)c(OC)c(OC)c1)c1ccc(OC)c(Br)c1
4.18

Quickly give me recorded pIC50 for CCOC(=O)/C(=C/c1cc(OC)c(OC)c(OC)c1)c1ccc(OC)c(Br)c1
4.36

Quickly give me recorded pIC50 for COc1ccc(/C=C\c2cc(OC)c(OC)c(OC)c2)cc1O
8.68

---

test system: SW620 (metastatic colon cancer) cells; experiment: SRB cytotoxicity assay, SW620; format: cell-based; details: Homo sapiens, SW-620; SRB assay, 48 h culture, mean ± SD, at least three independent experiments; compounds marked * : low solubility, real values might be lower; read-out: Cytotoxicity IC50, SW620
Known IC50 of a selection of molecules
Reply with just the number (in µM).

Before answering, review these 7 worked examples.
CNC(=O)/C(=C/c1cc(OC)c(OC)c(OC)c1)c1ccc(OC)c(Br)c1: 46
CCCCN(CCCC)C(=O)/C(=C/c1cc(OC)c(OC)c(OC)c1)c1ccc(OC)c(Br)c1: 20.9
COc1ccc(/C(=C\c2cc(OC)c(OC)c(OC)c2)C(=O)NCc2ccccc2)cc1Br: 62.4
CCOC(=O)/C(=C/c1cc(OC)c(OC)c(OC)c1)c1ccc(OC)c(Br)c1: 57.5
COc1ccc(/C=C\c2cc(OC)c(OC)c(OC)c2)cc1O: 0.00221
COc1ccc(/C(=C\c2cc(OC)c(OC)c(OC)c2)C(=O)OCCCCBr)cc1Br: 24.2
CCCCNC(=O)/C(=C/c1cc(OC)c(OC)c(OC)c1)c1ccc(OC)c(Br)c1: 50.8

Let's switch to this molecule now.
Quickly give me recorded IC50 for COC(=O)/C(=C/c1cc(OC)c(OC)c(OC)c1)c1ccc(OC)c(Br)c1
61.8

---

Assay: SRB cytotoxicity assay, HaCaT
Type: cell-based
Conditions: human, HaCaT immortalized keratinocyte cells (non-tumor cell line), 48 h culture, mean ± SD, at least three independent experiments, compounds marked * : low solubility, real values might be lower
Description: The antiproliferative activity was tested on human primary (SW480) and metastatic (SW620) colon cancer, human prostate cancer (PC3), human liver cancer (HepG2), human breast cancer (MDA), human lung cancer (A549), and human immortalized keratinocyte (HaCaT) cell lines obtained from the American Type Culture Collection (ATCC, Rockville, MD, USA). […]
ASSAY METRIC: IC50 at 48 h

COc1ccc(/C(=C\c2cc(OC)c(OC)c(OC)c2)C(=O)NCc2ccccc2)cc1Br [Compound 13]: 68.5 µM
CNC(=O)/C(=C/c1cc(OC)c(OC)c(OC)c1)c1ccc(OC)c(Br)c1 [Compound 10]: 55.3 µM

Let's switch to this compound now.
Quickly give me recorded IC50 at 48 h for CCCN(CCC)C(=O)/C(=C/c1cc(OC)c(OC)c(OC)c1)c1ccc(OC)c(Br)c1 [Compound 19]
> 100 µM

---

tested on: SW480 (primary colon cancer) cells; assay: SRB cytotoxicity assay, SW480; assay type: cell-based; details: Homo sapiens, SW480; SRB assay, 48 h culture, mean ± SD, at least three independent experiments; compounds marked * : low solubility, real values might be lower; read-out: Cytotoxicity IC50, SW480
ASSAY METRIC: IC50

CCCCN(CCCC)C(=O)/C(=C/c1cc(OC)c(OC)c(OC)c1)c1ccc(OC)c(Br)c1 [Compound 20]: 18.8 µM
COc1ccc(/C(=C\c2cc(OC)c(OC)c(OC)c2)C(=O)Nc2ccccc2)cc1Br [Compound 14]: > 100 µM
C#CCOC(=O)/C(=C/c1cc(OC)c(OC)c(OC)c1)c1ccc(OC)c(Br)c1 [Compound 6]: > 100 µM
C#CCNC(=O)/C(=C/c1cc(OC)c(OC)c(OC)c1)c1ccc(OC)c(Br)c1 [Compound 12]: > 100 µM
COc1ccc(/C=C\c2cc(OC)c(OC)c(OC)c2)cc1O [CA4, combretastatin A-4]: 0.00281 µM
COc1ccc(/C(=C\c2cc(OC)c(OC)c(OC)c2)C(=O)N(Cc2ccccc2)Cc2ccccc2)cc1Br [Compound 22]: > 100 µM
COc1ccc(/C(=C\c2cc(OC)c(OC)c(OC)c2)C(=O)N2CCOCC2)cc1Br [Compound 21]: > 100 µM
COc1ccc(/C(=C\c2cc(OC)c(OC)c(OC)c2)C(=O)OCc2ccccc2)cc1Br [Compound 7]: > 100 µM

Quickly give me recorded IC50 for COC(=O)/C(=C/c1cc(OC)c(OC)c(OC)c1)c1ccc(OC)c(Br)c1 [Compound 4]
57.6 µM

Quickly give me recorded IC50 for COc1ccc(/C(=C\c2cc(OC)c(OC)c(OC)c2)C(=O)NCc2ccccc2[N+](=O)[O-])cc1Br [Compound 15]
> 100 µM

Quickly give me recorded IC50 for COc1ccc(/C(=C\c2cc(OC)c(OC)c(OC)c2)C(=O)OCCCCCCBr)cc1Br [Compound 9]
> 100 µM

Quickly give me recorded IC50 for CCOC(=O)/C(=C/c1cc(OC)c(OC)c(OC)c1)c1ccc(OC)c(Br)c1 [Compound 5]
73.6 µM

Quickly give me recorded IC50 for COc1ccc(/C(=C\c2cc(OC)c(OC)c(OC)c2)C(=O)O)cc1Br [Compound 3]
> 100 µM

Quickly give me recorded IC50 for CCCCNC(=O)/C(=C/c1cc(OC)c(OC)c(OC)c1)c1ccc(OC)c(Br)c1 [Compound 11]
50.2 µM

Quickly give me recorded IC50 for COc1ccc(/C(=C\c2cc(OC)c(OC)c(OC)c2)C(=O)NCc2ccccc2Cl)cc1Br [Compound 16]
> 100 µM

Quickly give me recorded IC50 for COc1ccc(/C(=C\c2cc(OC)c(OC)c(OC)c2)C(=O)OCCCCBr)cc1Br [Compound 8]
32.7 µM

Quickly give me recorded IC50 for COc1ccc(/C(=C\c2cc(OC)c(OC)c(OC)c2)C(=O)NCc2cccc(Cl)c2)cc1Br [Compound 17]
> 100 µM

Quickly give me recorded IC50 for CCCN(CCC)C(=O)/C(=C/c1cc(OC)c(OC)c(OC)c1)c1ccc(OC)c(Br)c1 [Compound 19]
> 100 µM

Quickly give me recorded IC50 for COc1ccc(/C(=C\c2cc(OC)c(OC)c(OC)c2)C(=O)NCc2ccc(Cl)cc2)cc1Br [Compound 18]
> 100 µM

Quickly give me recorded IC50 for CNC(=O)/C(=C/c1cc(OC)c(OC)c(OC)c1)c1ccc(OC)c(Br)c1 [Compound 10]
52.2 µM

Quickly give me recorded IC50 for COc1ccc(/C(=C\c2cc(OC)c(OC)c(OC)c2)C(=O)NCc2ccccc2)cc1Br [Compound 13]
59.8 µM

Data origin, for the record: paper PMC11124394
